Origin of measurements: the supplement of paper PMC10724198

# Test system: Saccharomyces cerevisiae
# assay-info: protein stability index of tFT-peptide fusion (C-terminal peptide) (PSI (0-1 scale)); higher = more stable (slower turnover)
# test-conditions: genetic background: wild type; temperature: 30 C
protein stability index of 0.7 or higher: Fulfilled. Under 0.7: Not fulfilled.

Worked cases, answers included:
NKNNCKLISEKF: Fulfilled
YGVRGFKGYYGG: Fulfilled
SDKVKRYISTTL: Not fulfilled

Ask: Can EALTTAATRYGP be said to have protein stability index at or above 0.7?
Result: Not fulfilled

Ask: Can HRLSFPTQNIRG be said to have protein stability index at or above 0.7?
Result: Not fulfilled

Ask: Can DSSRRKRLICMN be said to have protein stability index at or above 0.7?
Result: Not fulfilled

Ask: Can SYLHALSRPSLL be said to have protein stability index at or above 0.7?
Result: Fulfilled

Ask: Can FVYFLLVVCFAF be said to have protein stability index at or above 0.7?
Result: Not fulfilled

###

# Test system: Saccharomyces cerevisiae
# assay-info: protein stability index of tFT-peptide fusion (C-terminal peptide) (PSI (0-1 scale)); higher = more stable (slower turnover)
# test-conditions: genetic background: wild type; temperature: 30 C
Readings of protein stability index for the listed sequences
Could you respond with only the numeric value?

Some solved cases for reference:
SPPLPPVLSRSH: 0.741
SEEAQRKRNTLK: 0.671
LVLELYRFARFG: 0.32
ERRWVLVAWRFK: 0.494

Ask: Kindly indicate its recorded protein stability index. Item: GRRGRSASRIRA
Result: 0.76

Ask: Kindly indicate its recorded protein stability index. Item: QGYWVKAVCASH
Result: 0.624

Ask: Kindly indicate its recorded protein stability index. Item: VTREEVSAGRGR
Result: 0.657

Ask: Kindly indicate its recorded protein stability index. Item: GYLVECKRLCVW
Result: 0.588

Ask: Kindly indicate its recorded protein stability index. Item: SFCSSVFWFFWL
Result: 0.584

Ask: Kindly indicate its recorded protein stability index. Item: QVKVGQTEMAYN
Result: 0.78

Ask: Kindly indicate its recorded protein stability index. Item: TWIPSFACQSLQ
Result: 0.703

Ask: Kindly indicate its recorded protein stability index. Item: CGQGRSVPFRSV
Result: 0.658

Ask: Kindly indicate its recorded protein stability index. Item: PLPPPHSPPPSA
Result: 0.677

Ask: Kindly indicate its recorded protein stability index. Item: GNVNCNLRRYYI
Result: 0.766

Ask: Kindly indicate its recorded protein stability index. Item: YMPKHKIQKLMQ
Result: 0.491

Ask: Kindly indicate its recorded protein stability index. Item: CVWHELTYGSLY
Result: 0.66

Ask: Kindly indicate its recorded protein stability index. Item: PCVCLRWTGKAF
Result: 0.532

Ask: Kindly indicate its recorded protein stability index. Item: HTGPTRPGHPLP
Result: 0.703

Ask: Kindly indicate its recorded protein stability index. Item: LKQKMKETGRRR
Result: 0.666

Ask: Kindly indicate its recorded protein stability index. Item: MGTRRVGRQGWG
Result: 0.708

Ask: Kindly indicate its recorded protein stability index. Item: GEVVGRCGAWVC
Result: 0.611

Ask: Kindly indicate its recorded protein stability index. Item: VVIRVKDEPFIM
Result: 0.678

Ask: Kindly indicate its recorded protein stability index. Item: KFLISIWGGTRG
Result: 0.612

Ask: Kindly indicate its recorded protein stability index. Item: SRNAFTLAARVY
Result: 0.589

Ask: Kindly indicate its recorded protein stability index. Item: CRKIKFIQKINK
Result: 0.623

###

# Tested on: Saccharomyces cerevisiae
# assay-info: protein stability index of tFT-peptide fusion (C-terminal peptide) (PSI (0-1 scale)); higher = more stable (slower turnover)
# test-conditions: genetic background: doa10 deletion; temperature: 30 C
protein stability index of 0.2 or higher: Criterion met. Under 0.2: Criterion not met.

VWFFGVVLGGLW: Criterion met
FIMHRIFMALVI: Criterion met
EWAILSLGVMCV: Criterion not met
RLLRGDRMVICS: Criterion met
KLLISLTWFCVL: Criterion not met
VCFCFLRFLSLL: Criterion not met

Ask: Can LWNFYELVVYAM be said to have protein stability index at or above 0.2?
Result: Criterion not met

Ask: Can VFVLFCAFVRAL be said to have protein stability index at or above 0.2?
Result: Criterion not met

Ask: Can PLRVFFLVAFCL be said to have protein stability index at or above 0.2?
Result: Criterion met

Ask: Can SVVLCRFVLRIF be said to have protein stability index at or above 0.2?
Result: Criterion not met

Ask: Can LWFRCVRMQACR be said to have protein stability index at or above 0.2?
Result: Criterion met

Ask: Can VGGGCVVVVRWG be said to have protein stability index at or above 0.2?
Result: Criterion met

Ask: Can GFLRTVHFLLLG be said to have protein stability index at or above 0.2?
Result: Criterion met

Ask: Can FRTTGQAPPSKP be said to have protein stability index at or above 0.2?
Result: Criterion met

Ask: Can WRCECELASACA be said to have protein stability index at or above 0.2?
Result: Criterion met

Ask: Can VHTAIFTSWRRL be said to have protein stability index at or above 0.2?
Result: Criterion met

Ask: Can SIQRKIRRMKEN be said to have protein stability index at or above 0.2?
Result: Criterion met

Ask: Can NLDRYYKKIKLI be said to have protein stability index at or above 0.2?
Result: Criterion not met

Ask: Can LDTTSRSRAKIS be said to have protein stability index at or above 0.2?
Result: Criterion not met

###

Readings of protein stability index for the listed sequences
# Test system: Saccharomyces cerevisiae
# assay-info: protein stability index of tFT-peptide fusion (C-terminal peptide) (PSI (0-1 scale)); higher = more stable (slower turnover)
# test-conditions: genetic background: wild type; temperature: 30 C
Could you respond with only the numeric value?

PLPPPPRPPLRP: 0.694
FLVREGIGKRGC: 0.641
CLRRGGAGEGAS: 0.687
GLYLVFMGFVPC: 0.47
RYLCLTPALYLS: 0.151

Ask: Kindly indicate its recorded protein stability index. Item: LCSLWWGLVSGW
Result: 0.652

Ask: Kindly indicate its recorded protein stability index. Item: GLWQRVGIVIGC
Result: 0.58

Ask: Kindly indicate its recorded protein stability index. Item: PEKRDIQSGIVD
Result: 0.696

Ask: Kindly indicate its recorded protein stability index. Item: KTKKKKKKKINK
Result: 0.711

Ask: Kindly indicate its recorded protein stability index. Item: CSEDMVGSIVVV
Result: 0.651

Ask: Kindly indicate its recorded protein stability index. Item: FLMLFVVLWLFL
Result: 0.366

Ask: Kindly indicate its recorded protein stability index. Item: FCNPHVGGIRRA
Result: 0.684

Ask: Kindly indicate its recorded protein stability index. Item: KHPLAPLRRPVI
Result: 0.68

###

# Test system: Saccharomyces cerevisiae
# assay-info: protein stability index of tFT-peptide fusion in deletion strain of DAS1 (PSI (0-1 scale)); higher = more stable (slower turnover)
readout-type: protein stability index

Some solved cases for reference:
VRGAVGGWRLMG: 0.66
KKHKKGQKQKINW: 0.657
PDKRNHLIKLLNM: 0.659
KLIQPLPVQFLN: 0.574
PKHKKGQKQKIN: 0.747

Ask: Kindly indicate its recorded protein stability index. Item: ARWRVDLWRGAS
Result: 0.728

Ask: Kindly indicate its recorded protein stability index. Item: LVVILSCVACIN
Result: 0.0419

Ask: Kindly indicate its recorded protein stability index. Item: PSLAWSFWRVVG
Result: 0.724

###

# Test system: Saccharomyces cerevisiae
# assay-info: protein stability index of tFT-peptide fusion (C-terminal peptide) (PSI (0-1 scale)); higher = more stable (slower turnover)
# test-conditions: genetic background: wild type; temperature: 37 C
readout-type: protein stability index
Could you respond with only the numeric value?

Some solved cases for reference:
FCDFLFVFPLFS: 0.632
FNLWCRQLASIE: 0.178
LYLFKVLFFRVF: 0.102
SFLLGCCWLVLC: 0.127
VLFLLLFVSRVA: 0.381

Ask: Kindly indicate its recorded protein stability index. Item: VLVVWLGICFGY
Result: 0.299

Ask: Kindly indicate its recorded protein stability index. Item: VRNKFSYVLRLN
Result: 0.138

Ask: Kindly indicate its recorded protein stability index. Item: VCLWAIHLSGCW
Result: 0.584

Ask: Kindly indicate its recorded protein stability index. Item: CIHMNCSMMIIS
Result: 0.0482

Ask: Kindly indicate its recorded protein stability index. Item: FLFCMIFIFRCF
Result: 0.252

Ask: Kindly indicate its recorded protein stability index. Item: CMILVACFYLPS
Result: 0.428

Ask: Kindly indicate its recorded protein stability index. Item: GLVCPWLIVRFV
Result: 0.216

Ask: Kindly indicate its recorded protein stability index. Item: WLTCSLVFNVFW
Result: 0.471

Ask: Kindly indicate its recorded protein stability index. Item: LAVFSSPELSFP
Result: 0.777

Ask: Kindly indicate its recorded protein stability index. Item: EGVVLLVDCVAT
Result: 0.492

Ask: Kindly indicate its recorded protein stability index. Item: LFVLVLLCWMLT
Result: 0.434

Ask: Kindly indicate its recorded protein stability index. Item: NDVGGYFYVCSE
Result: 0.735

Ask: Kindly indicate its recorded protein stability index. Item: RRRRHVDHSTQR
Result: 0.57

Ask: Kindly indicate its recorded protein stability index. Item: AEVLCEIVIALR
Result: 0.543

Ask: Kindly indicate its recorded protein stability index. Item: FFCVLGLSFFCL
Result: 0.566

Ask: Kindly indicate its recorded protein stability index. Item: SLICLSVGVLLR
Result: 0.258

Ask: Kindly indicate its recorded protein stability index. Item: FECLLFVNLLVI
Result: 0.349

Ask: Kindly indicate its recorded protein stability index. Item: GGGVGGAVVLFW
Result: 0.716
